assay: Lipophilicity, log P of the compound; format: physicochemical; conditions: octanol/water
Each entry gets FALSE if its logP stays under 2, and TRUE if its logP is 2 or above.

Exercise: Decide: logP of CC#CCn1c(N2CCC[C@@H](N)C2)cc(=O)n(Cc2cc(OC)c(OC)c(Br)c2Br)c1=O >= 2?
Key: TRUE

Exercise: Decide: logP of CCCCCCn1c(=O)cc(N2CCC[C@@H](N)C2)n(Cc2cc(F)ccc2C#N)c1=O >= 2?
Key: TRUE

Exercise: Decide: logP of CC#CCn1c(N2CCC[C@@H](N)C2)cc(=O)n(CCC)c1=O >= 2?
Key: FALSE

Exercise: Decide: logP of CC#CCn1c(N2CCC[C@@H](N)C2)cc(=O)n(Cc2ccc(OC)c(OC)c2)c1=O >= 2?
Key: FALSE

Exercise: Decide: logP of CC#CCn1c(N2CCC[C@@H](N)C2)cc(=O)n(Cc2cc(C)cc(C)c2)c1=O >= 2?
Key: TRUE

Exercise: Decide: logP of CCCCCCCCCCn1c(=O)cc(N2CCC[C@@H](N)C2)n(Cc2cc(F)ccc2C#N)c1=O >= 2?
Key: TRUE

Exercise: Decide: logP of CC#CCn1c(N2CCC[C@@H](N)C2)cc(=O)n(Cc2cc(F)cc(F)c2)c1=O >= 2?
Key: TRUE

Exercise: Decide: logP of CC#CCn1c(N2CCC[C@@H](N)C2)cc(=O)n(CCCCCC)c1=O >= 2?
Key: TRUE

Exercise: Decide: logP of CC#CCn1c(N2CCC[C@@H](N)C2)cc(=O)n(Cc2c(Br)c(Br)c(OC)c(OC)c2Br)c1=O >= 2?
Key: TRUE

Exercise: Decide: logP of CC#CCn1c(N2CCC[C@@H](N)C2)cc(=O)n(CC)c1=O >= 2?
Key: FALSE

Exercise: Decide: logP of Cc1cc(C)cc(Cn2c(=O)cc(N3CCC[C@@H](N)C3)n(Cc3cc(F)ccc3C#N)c2=O)c1 >= 2?
Key: TRUE

Exercise: Decide: logP of CC#CCn1c(N2CCC[C@@H](N)C2)cc(=O)n(Cc2cc(Br)c(OC)c(OC)c2)c1=O >= 2?
Key: TRUE

Exercise: Decide: logP of COc1cc(Cn2c(=O)cc(N3CCC[C@@H](N)C3)n(Cc3cc(F)ccc3C#N)c2=O)c(Br)c(Br)c1OC >= 2?
Key: TRUE

Exercise: Decide: logP of N#Cc1ccc(F)cc1Cn1c(N2CCC[C@@H](N)C2)cc(=O)n(Cc2cc(F)cc(F)c2)c1=O >= 2?
Key: TRUE

Exercise: Decide: logP of COc1c(Br)c(Br)c(Cn2c(=O)cc(N3CCC[C@@H](N)C3)n(Cc3cc(F)ccc3C#N)c2=O)c(Br)c1OC >= 2?
Key: TRUE

Exercise: Decide: logP of COc1cc(Cn2c(=O)cc(N3CCC[C@@H](N)C3)n(Cc3cc(F)ccc3C#N)c2=O)cc(Br)c1OC >= 2?
Key: TRUE

Exercise: Decide: logP of COc1ccc(Cn2c(=O)cc(N3CCC[C@@H](N)C3)n(Cc3cc(F)ccc3C#N)c2=O)cc1OC >= 2?
Key: TRUE

Exercise: Decide: logP of CC#CCn1c(N2CCC[C@@H](N)C2)cc(=O)n(CCCCCCCCCC)c1=O >= 2?
Key: TRUE
